Tested on: Staphylococcus aureus
assayMethodText: Bactericidal activity against Staphylococcus aureus ATCC 19433 measured after 24 hrs by broth dilution method
Format: functional
quantityName: MBC

Give the reported value of MBC for this record: Cc1nc(-c2ccc(-c3ccc(CO)cc3)cc2)c(C)s1 >200 µg

Give the reported value of MBC for this record: Cc1ccc(-c2ccc(-c3nc(C)sc3C)cc2)cc1 >200 µg

Note: attention shifts to another entry.
Give the reported value of MBC for this record: COc1ccc(-c2ccc(-c3nc(C)sc3C)cc2)cc1 >200 µg

----------
# zone of inhibition at 200 µg/mL listing for each entry below
Test system: Staphylococcus aureus
assayMethodText: Antibacterial activity against Staphylococcus aureus ATCC 19433 at 200 ug/mL measured after 24 hrs by filter paper disc method
Format: functional
conditionDetails: ATCC 19433, 24 h, read-out: DIZ
Field format: number, assumed mm, no unit text.

Give the reported value of zone of inhibition at 200 µg/mL for this record: Cc1nc(-c2ccc(-c3ccc(O)cc3)cc2)c(C)s1 19.2

Give the reported value of zone of inhibition at 200 µg/mL for this record: COc1ccc(-c2ccc(-c3nc(C)sc3C)cc2)cc1OC 24.1

Give the reported value of zone of inhibition at 200 µg/mL for this record: Cc1cc(C)c(-c2ccc(-c3nc(C)sc3C)cc2)c(C)c1 26.1

Give the reported value of zone of inhibition at 200 µg/mL for this record: O=C(O)c1cn(C2CC2)c2cc(N3CCNCC3)c(F)cc2c1=O [CIPROFLOXACIN] 27
